STUDY TARGET: Bcl-xLΔ25 (Homo sapiens, UniProt Q07817)
Construct: GST tagged Bcl-xL ΔC25 protein
Sequence (Q07817 1-208 limits assumed, stated change not applied): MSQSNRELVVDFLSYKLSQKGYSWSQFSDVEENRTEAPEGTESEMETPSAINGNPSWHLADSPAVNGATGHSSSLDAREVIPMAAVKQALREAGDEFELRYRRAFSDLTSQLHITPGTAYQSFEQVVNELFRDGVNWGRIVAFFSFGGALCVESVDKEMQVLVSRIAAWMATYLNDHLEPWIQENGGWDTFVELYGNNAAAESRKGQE
PROTOCOL NOTES: Alphascreen GST competition binding assay, benzoylurea compounds vs Biotinylated Bim BH3-26 peptide on GST tagged Bcl-xL ΔC25 protein
CONDITION SET: GST tagged Bcl-xL ΔC25 protein 0.6 nM, Biotinylated Bim BH3-26 peptide 5.0 nM, 4 hours at room temperature; n.b. = not binding in the assay conditions
ATTRIBUTE MEASURED: IC50 (µM)
Lab book: enter the figure in µM, no units written.

Query :: Item: CCCN(C(=O)N[C@@H](CSCC(C)C)C(=O)NS(=O)(=O)c1cccc(Br)c1)C(=O)c1cccc(C#Cc2ccccc2)c1 Test system: Bcl-xLΔ25 (Homo sapiens, UniProt Q07817) Read-out: IC50 Value: ?
Result :: 40

Query :: Item: CC(C)CCc1cccc(C(=O)N(Cc2ccccc2)C(=O)N[C@@H](CSCc2ccccc2)C(=O)O)c1 Test system: Bcl-xLΔ25 (Homo sapiens, UniProt Q07817) Read-out: IC50 Value: ?
Result :: 81

Query :: Item: CC(C)Cc1cccc(C(=O)N(CCc2ccccc2)C(=O)N[C@@H](CSCc2ccccc2)C(=O)O)c1 Test system: Bcl-xLΔ25 (Homo sapiens, UniProt Q07817) Read-out: IC50 Value: ?
Result :: 87

Query :: Item: CCCN(C(=O)N[C@@H](CSCc1ccccc1)C(=O)O)C(=O)c1cccc(-c2ccccc2)c1 Test system: Bcl-xLΔ25 (Homo sapiens, UniProt Q07817) Read-out: IC50 Value: ?
Result :: 70.1

---

Observed pIC50, system Bcl-xLΔ25 (Homo sapiens, UniProt Q07817).
In plain terms, pIC50 is the concentration in mol/L turned into minus its base-10 logarithm.

Query :: For the compound shown here, CCCN(C(=O)N[C@H](CC(=O)O)Cc1cccc2ccccc12)C(=O)c1cccc(C#Cc2ccccc2)c1 , give the reported pIC50.
Result :: 4.17

Query :: For the compound shown here, CC(C)CCN(C(=O)N[C@@H](CSCC(C)C)C(=O)O)C(=O)c1cccc(C#Cc2ccccc2)c1 , give the reported pIC50.
Result :: 4.62

Query :: For the compound shown here, CCCN(C(=O)N[C@@H](CSCc1ccccc1-c1ccccc1)C(=O)O)C(=O)c1cccc(C#Cc2ccccc2)c1 , give the reported pIC50.
Result :: 3.82

Query :: For the compound shown here, CCCN(C(=O)N[C@@H](CSCC(C)C)C(=O)O)C(=O)c1cccc(C#Cc2cccc(Br)c2)c1 , give the reported pIC50.
Result :: 4.49

Query :: For the compound shown here, CCCN(C(=O)N[C@@H](CSCC(C)C)C(=O)O)C(=O)c1cccc(C#Cc2ccc(Cl)cc2)c1 , give the reported pIC50.
Result :: 4.59

Query :: For the compound shown here, CCCCN(C(=O)N[C@@H](CSCc1ccccc1)C(=O)O)C(=O)c1cccc(-c2ccccc2)c1 , give the reported pIC50.
Result :: 4.25

Query :: For the compound shown here, CCCN(C(=O)N[C@@H](CSCC(CC)CC)C(=O)O)C(=O)c1cccc(C#Cc2ccccc2)c1 , give the reported pIC50.
Result :: 4.05

Query :: For the compound shown here, CCCN(C(=O)N[C@@H](CSCC(C)C)C(=O)O)C(=O)c1cccc(C#Cc2ccccc2OC)c1 , give the reported pIC50.
Result :: 4.34

Query :: For the compound shown here, CCCN(C(=O)N[C@@H](CSCC(C)C)C(=O)O)C(=O)c1cccc(C#Cc2ccc(C(C)(C)C)cc2)c1 , give the reported pIC50.
Result :: 3.97

Query :: For the compound shown here, CCCN(C(=O)N[C@@H](CSCc1ccccc1-c1ccccc1)C(=O)O)C(=O)c1cccc(-c2ccccc2Cl)c1 , give the reported pIC50.
Result :: 4.28

Query :: For the compound shown here, CCCN(C(=O)Cc1ccccc1)C(=O)N[C@@H](CSCc1ccccc1)C(=O)O , give the reported pIC50.
Result :: 3.74

Query :: For the compound shown here, CCCN(C(=O)N[C@@H](CSCc1ccccc1)C(=O)O)C(=O)c1ccc(CCc2ccccc2)cc1 , give the reported pIC50.
Result :: 4.07
